Tested on: HCV replicon 2B
TEST DETAILS: microbe, parasite or virus in culture
Format: cell-based, Hepatitis C virus (HCV)
COND: Hepatitis C virus, read-out: 2B IC50, HCV replicon 2B; Replicon Assay A
QUANTITY MEASURED: IC50 (nM)

>>> assay_result("CCc1ccc(C2Oc3cc(-c4cnc([C@@H]5CCCN5C(=O)[C@@H](NC(=O)OC)C(C)C)[nH]4)cc(C)c3-c3cc4cc(-c5cnc([C@@H]6CCCN6C(=O)[C@@H](NC(=O)OC)C6CCOCC6)[nH]5)ccc4n32)s1 (single isomer, unassigned)")
0.0516
>>> assay_result("COC(=O)N[C@H](C(=O)N1C2C[C@@H]2C[C@H]1c1nc(-c2ccc3c(c2)cc2n3C(c3ccc(Cl)s3)Oc3cc(-c4c[nH]c([C@@H]5C[C@H]6C[C@H]6N5C(=O)[C@@H](NC(=O)OC)C(C)C)n4)ccc3-2)c[nH]1)C(C)C (mixture of isomers)")
1.08
>>> assay_result("COC(=O)N[C@H](C(=O)N1C[C@H](F)C[C@H]1c1nc(-c2ccc3c(c2)cc2n3C(c3cc(C)c(C)s3)Oc3cc(-c4cnc([C@@H]5C[C@@H](F)CN5C(=O)[C@@H](NC(=O)OC)C(C)C)[nH]4)ccc3-2)c[nH]1)C(C)C (mixture of isomers)")
0.029
>>> assay_result("COC(=O)N[C@H](C(=O)N1CCC[C@H]1c1ncc(-c2cc(F)c3c(c2)OC(c2ccc(C4CC4)s2)n2c-3cc3cc(-c4cnc([C@@H]5C[C@H]6C[C@H]6N5C(=O)[C@@H](NC(=O)OC)C5CCOCC5)[nH]4)ccc32)[nH]1)C(C)C (stereo partly drawn)")
0.00144
>>> assay_result("COC(=O)N[C@H](C(=O)N1CCC[C@H]1c1ncc(-c2cc(C)c3c(c2)OC(c2cc4c(s2)CCC4)n2c-3cc3cc(-c4cnc([C@@H]5CCCN5C(=O)[C@@H](NC(=O)OC)C5CCOCC5)[nH]4)ccc32)[nH]1)C(C)C (single isomer, unassigned)")
0.147
>>> assay_result("COC(=O)NC(C(=O)N1[C@@H]2C[C@@H]2C[C@H]1c1ncc(-c2ccc3c(c2)cc2n3C(c3cc4c(s3)CCC4)Oc3cc(-c4cnc([C@@H]5CCCN5C(=O)[C@@H](NC(=O)OC)C(C)C)[nH]4)cc(F)c3-2)[nH]1)C(C)C (single isomer, unassigned)")
0.122
>>> assay_result("CCN(CC)[C@@H](C(=O)N1CCC[C@H]1c1ncc(-c2ccc3c(c2)cc2n3C(c3cc4ccccc4s3)Oc3cc(-c4cnc([C@@H]5C[C@@H](F)CN5C(=O)[C@@H](c5ccccc5)N(CC)CC)[nH]4)ccc3-2)[nH]1)c1ccccc1 (mixture of isomers)")
0.32
>>> assay_result("COC(=O)NC(C(=O)N1CCC[C@H]1c1ncc(-c2ccc3c(c2)cc2n3C(c3ccc(CC(F)(F)F)s3)Oc3cc(-c4cnc([C@@H]5CCCN5C(=O)[C@@H](NC(=O)OC)C(C)C)[nH]4)cc(F)c3-2)[nH]1)C1CCOC(C)(C)C1 (single isomer, unassigned)")
0.011
>>> assay_result("COC(=O)N[C@H](C(=O)N1CCC[C@H]1c1ncc(-c2ccc3c(c2)O[C@@H](c2cc4cc(OC)ccc4s2)n2c-3cc3cc(-c4cnc([C@@H]5CCCN5C(=O)[C@@H](NC(=O)OC)C(C)C)[nH]4)ccc32)[nH]1)C(C)C")
0.43
>>> assay_result("COC(=O)N[C@H](C(=O)N1CCC[C@H]1c1nc(-c2cc(F)c3c(c2)OC(c2ccc(C4CC4)s2)n2c-3cc3cc(-c4c[nH]c([C@@H]5C[C@H]6C[C@H]6N5C(=O)[C@@H](NC(=O)OC)[C@@H](C)OC)n4)ccc32)c[nH]1)C(C)C (mixture of isomers)")
0.08
>>> assay_result("CCN(CC)[C@@H](C(=O)N1C[C@H](F)C[C@H]1c1nc(-c2ccc3c(c2)OC(c2ccc(C4CC4)s2)n2c-3cc3cc(-c4c[nH]c([C@@H]5C[C@@H](F)CN5C(=O)[C@@H](c5ccccc5)N(CC)CC)n4)ccc32)c[nH]1)c1ccccc1 (mixture of isomers)")
0.063
>>> assay_result("CCN(CC)[C@@H](C(=O)N1C[C@H](F)C[C@H]1c1nc(-c2ccc3c(c2)OC(c2ccc(Cl)s2)n2c-3cc3cc(-c4c[nH]c([C@@H]5C[C@@H](F)CN5C(=O)[C@@H](c5ccccc5)N(CC)CC)n4)ccc32)c[nH]1)c1ccccc1 (mixture of isomers)")
12.5
>>> assay_result("COC(=O)NC(C(=O)N1CCC[C@H]1c1ncc(-c2ccc3c(c2)cc2n3C(c3ccc(C4CC4)s3)Oc3cc(-c4cnc([C@@H]5CCCN5C(=O)[C@@H](NC(=O)OC)C(C)C)[nH]4)cc(C)c3-2)[nH]1)C1CCOC(C)(C)C1 (single isomer, unassigned)")
0.17
>>> assay_result("COC(=O)N[C@H](C(=O)N1CCC[C@H]1c1ncc(-c2cc(F)c3c(c2)OC(c2ccc(C4CC4)s2)n2c-3cc3cc(-c4cnc([C@@H]5CCCN5C(=O)[C@@H](NC(=O)OC)C(C)C)[nH]4)ccc32)[nH]1)C(C)C (mixture of isomers)")
0.0488
>>> assay_result("COC(=O)N[C@H](C(=O)N1C[C@H](F)C[C@H]1c1ncc(-c2ccc3c(c2)OC(c2ccc(C4CC4)s2)n2c-3cc3cc(-c4cnc([C@@H]5C[C@@H](F)CN5C(=O)[C@@H](NC(=O)OC)C5CCOCC5)[nH]4)ccc32)[nH]1)C1CCOCC1 (mixture of isomers)")
116
